Origin of values: patent US20060264460A1

- testedOn: human Cot/Tpl2 kinase (Homo sapiens)
- Construct: human Cot/Tpl2 kinase construct encoding residues 30-398; 6His (N); made in house; host or cells: Sf9 insect cells, baculovirus system (BD Biosciences)
- Sequence (P41279 30-398): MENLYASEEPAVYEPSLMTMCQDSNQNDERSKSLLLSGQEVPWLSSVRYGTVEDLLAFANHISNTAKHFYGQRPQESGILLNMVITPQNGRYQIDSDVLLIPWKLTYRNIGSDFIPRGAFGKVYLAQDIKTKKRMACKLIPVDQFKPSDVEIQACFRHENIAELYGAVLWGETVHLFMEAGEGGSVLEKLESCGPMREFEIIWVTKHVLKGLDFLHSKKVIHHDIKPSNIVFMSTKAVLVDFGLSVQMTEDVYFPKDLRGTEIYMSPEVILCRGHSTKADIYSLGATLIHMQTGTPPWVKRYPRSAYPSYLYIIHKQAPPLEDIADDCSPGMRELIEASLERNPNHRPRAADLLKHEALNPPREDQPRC
- testDetails: Tpl2/Cot kinase assay: GST-MEK1 phosphorylation detected by ELISA (DELFIA Eu)
- Type: biochemical
- recordedConditions: Table 2; Tpl2/Cot kinase, GST-MEK1 substrate, 50 uM ATP
reportedProperty: log10 IC50 (log10 of the value in µM)
Annotation: log10 of IC50, µM basis.

{"testSmiles": "Cc1cc(CNc2cc(Br)c3ncc(C#N)c(Nc4ccc(F)c(Cl)c4)c3c2)nn1C", "measuredResult": 0.74}
{"testSmiles": "CN(C)CCCn1cc(CNc2cc(Br)c3ncc(C#N)c(Nc4ccc(F)c(Cl)c4)c3c2)nn1", "measuredResult": -1.70}
{"testSmiles": "N#Cc1cnc2c(Br)cc(NCc3cn(CCCN4CCCNCC4)nn3)cc2c1Nc1ccc(F)c(Cl)c1", "measuredResult": -1.37}
{"testSmiles": "Cn1cnc(CNc2cc(Br)c3ncc(C#N)c(Nc4ccc(F)c(Cl)c4)c3c2)n1", "measuredResult": -0.70}
{"testSmiles": "Cn1ncc(Br)c1CNc1cc(Br)c2ncc(C#N)c(Nc3ccc(F)c(Cl)c3)c2c1", "measuredResult": 0.00}

Name the recorded log10 IC50 for `N#Cc1cnc2ccc(NCc3cnc[nH]3)cc2c1NC1CCCCCC1` . -0.31

Any idea what its log10 IC50 is? The compound is `Cn1nnc(CNc2cc(Cl)c3ncc(C#N)c(Nc4ccc(F)c(Cl)c4)c3c2)n1` -0.64
